- System: AH22 strain
- test details: Antifungal compound sensitivity test, control yeast AH22 strain (Example 19)
- Type: cell-based, Saccharomyces cerevisiae
- measurement context: final concentration 6.0 ppm; 30° C. 24.8 hours; relative value in percentage
reported property: Degree of growth of budding yeast AH22 Glu medium (%)

>>> df
                                   compound  data_value
0  CC(C)NC(=O)N1CC(=O)N(c2cc(Cl)cc(Cl)c2)C1=O          92
1  C=CC1(C)OC(=O)N(c2cc(Cl)cc(Cl)c2)C1=O (centres unmarked)          82
2             COP(=S)(OC)Oc1c(Cl)cc(C)cc1Cl          78
3  CC12CC1(C)C(=O)N(c1cc(Cl)cc(Cl)c1)C2=O (centres unmarked)          88
4    O=[N+]([O-])c1c(Cl)c(Cl)c(Cl)c(Cl)c1Cl          83
